assay: qHTS for Inhibitors of Cell Surface uPA Generation: Validation Assay (AID 493164); settings: mouse cells, plasminogen activation; series mostly up to 38.3 µM;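 further: RAW 264.7 macrophage cells exposed to compound for 18 h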
Calls of active or inactive are those of the source. The call rests on the fitted dose curve; in most records, active means well fitted curve in the direction sought with a large enough effect; inconclusive means small, poorly fitted or top-dose-only effect, or effect the other way, or another doubt; inactive means no such curve, though single readings can be large or run the other way.

Compound	outcome
CN1C2CC(OC(=O)[C@H](CO)c3ccccc3)CC1C1OC12 (some centres not stated)	inactive
Cn1c(=O)c2[nH]c(-c3ccccc3)nc2n(C)c1=O	inactive
CC(=O)N[C@H](C(=O)O)C(C)(C)SN=O	inactive
N#C/C(=C\c1ccc(O)c(O)c1)C(=O)NCc1ccccc1	inactive
NC(=O)C(=O)O	inactive
OC[C@H]1O[C@@H](n2cnc3c(Nc4ccccc4)ncnc32)[C@H](O)[C@@H]1O	inactive
Ic1ccc(N2CCN(Cc3c[nH]c4ncccc34)CC2)cc1	inactive
COC1=C(OC)C(=O)c2ccccc2C1=O	inactive
CC(C)ON([C@@H](C(=O)NO)C(C)C)S(=O)(=O)c1ccc(-c2ccccc2)cc1	inactive
CO/N=C(\C(=O)N[C@@H]1C(=O)N2C(C(=O)O)=C(COC(C)=O)CS[C@H]12)c1csc(N)n1	inactive
COC(=O)c1c(C)[nH]c(C)c1C(=O)c1ccccc1Cc1ccccc1	inactive
CN1CCc2cc(NC(=O)Nc3cccnc3)ccc21	inactive
C=C[C@H]1CN2CC[C@@H]1C[C@@H]2[C@@H](O)c1ccnc2ccc(OC)cc12	inactive
Nc1ncnc2c1ncn2[C@@H]1O[C@H](COP(=O)(O)CP(=O)(O)OP(=O)(O)O)[C@@H](O)[C@H]1O	inactive
O=C1/C(=C/c2ccsc2)CC/C1=C\c1cccs1	inactive
OC[C@H]1O[C@@H](n2cnc3c(NC4CCCCC4)ncnc32)[C@H](O)[C@@H]1O	inactive
CCN(CC)c1ncnc2c1ncn2[C@@H]1O[C@H](COP(=O)(O)OP(=O)(O)C(Br)(Br)P(=O)(O)O)[C@@H](O)[C@H]1O	inactive
CC(C)(C)c1ccc(S(=O)(=O)/C=C/C#N)cc1	inactive
CN1CCc2cc(O)c(O)cc2C(c2ccccc2)C1 (configuration not stated)	inactive
CCCCCCCCCCCCCCCCCC(=O)NCC(COP(=O)([O-])OCC[N+](C)(C)C)OCC (configuration not stated)	inactive
N[C@@H](CC(=O)O)C(=O)O	inactive
COc1ccc(NC(=O)/C=C/c2ccc(Cl)cc2)cc1	inactive
